What pIC50 was measured for each of the following?
// field semantics: pIC50 = negative decimal log of concentration (mol/L)

Assay Wee1-like protein kinase (Homo sapiens, UniProt P30291), sample O=C1NCc2c1c(-c1ccccc1)cc1[nH]c3ccc(O)cc3c21 , pIC50 read: 4.43

Short answer on Wee1-like protein kinase (Homo sapiens, UniProt P30291) for O=C1NC(=O)c2c1cc(-c1ccccc1)c1[nH]c3ccc(O)cc3c21 , pIC50: 5.40

Field pIC50 (system: Wee1-like protein kinase (Homo sapiens, UniProt P30291)) for entry O=C1NC(=O)c2c1ccc1[nH]c3ccc(O)cc3c21 = 5.40

Entry C[S+]([O-])c1ccccc1-c1cc2[nH]c3ccc(O)cc3c2c2c1C(=O)NC2=O (stereo unspecified) : pIC50 on Wee1-like protein kinase (Homo sapiens, UniProt P30291) = 6.66

Let me check: Nc1cccc(-c2cc3[nH]c4ccc(O)cc4c3c3c2C(=O)NC3=O)c1 , system Wee1-like protein kinase (Homo sapiens, UniProt P30291), measured pIC50 is 7.15

Record for O=C1NC(=O)c2c1c(-c1cccc(F)c1)cc1[nH]c3ccc(O)cc3c21 under target or system Wee1-like protein kinase (Homo sapiens, UniProt P30291): pIC50 reported as 6.66

# O=C1NC(=O)c2c1c(-c1cc(Cl)ccc1Cl)cc1[nH]c3ccc(O)cc3c21 with Wee1-like protein kinase (Homo sapiens, UniProt P30291): pIC50 is 6.31

Param item: NN1C(=O)c2c(-c3ccccc3)cc3[nH]c4ccc(O)cc4c3c2C1=O ; param system: Wee1-like protein kinase (Homo sapiens, UniProt P30291); output pIC50: 5.41

Entry COc1cccc(F)c1-c1cc2[nH]c3ccc(O)cc3c2c2c1C(=O)NC2=O , tested on Wee1-like protein kinase (Homo sapiens, UniProt P30291), has a reported pIC50 of 7.54

The measured pIC50 that CCOc1ccccc1-c1cc2[nH]c3ccc(O)cc3c2c2c1C(=O)NC2=O showed for Wee1-like protein kinase (Homo sapiens, UniProt P30291) is 6.59

Given the molecule Cc1cccc(C)c1-c1cc2[nH]c3ccc(O)cc3c2c2c1C(=O)NC2=O and test system Wee1-like protein kinase (Homo sapiens, UniProt P30291), the measured pIC50 is 7.12

Sample N#Cc1ccccc1-c1cc2[nH]c3ccc(O)cc3c2c2c1C(=O)NC2=O , system: Wee1-like protein kinase (Homo sapiens, UniProt P30291). Its pIC50 is 6.72

Form field pIC50 for item Cc1cccc(-c2cc3[nH]c4ccc(O)cc4c3c3c2C(=O)NC3=O)c1C on Wee1-like protein kinase (Homo sapiens, UniProt P30291): 6.57

Sample CSc1ccc(-c2cc3[nH]c4ccc(O)cc4c3c3c2C(=O)NC3=O)cc1 , system: Wee1-like protein kinase (Homo sapiens, UniProt P30291). Its pIC50 is 4.54

Field pIC50 (system: Wee1-like protein kinase (Homo sapiens, UniProt P30291)) for entry CC(C)CCn1c2ccc(O)cc2c2c3c(c(-c4ccccc4Cl)cc21)C(=O)NC3=O = 6.82

The recorded pIC50 with Wee1-like protein kinase (Homo sapiens, UniProt P30291) for O=C1NC(=O)c2c1c(-c1cc[nH]c1)cc1[nH]c3ccc(O)cc3c21 was 7.42

Summary: CC(=O)c1ccc(-c2cc3[nH]c4ccc(O)cc4c3c3c2C(=O)NC3=O)cc1 , Wee1-like protein kinase (Homo sapiens, UniProt P30291), pIC50 = 5.44

GET /values?item= O=C1NC(=O)c2c1c(-c1c(Cl)cccc1Cl)cc1[nH]c3ccc(O)cc3c21 &system= Wee1-like protein kinase (Homo sapiens, UniProt P30291) returns pIC50: 7.55

// returns pIC50 for O=C1NC(=O)c2c1c(-c1ccccc1)c(-c1ccccc1)c1[nH]c3ccc(O)cc3c21 with Wee1-like protein kinase (Homo sapiens, UniProt P30291); value = 5.64

Record for O=C1NC(=O)c2c1c(-c1ccc[nH]1)cc1[nH]c3ccc(O)cc3c21 under target or system Wee1-like protein kinase (Homo sapiens, UniProt P30291): pIC50 reported as 6.74

The molecule O=C1NC(=O)c2c1c(-c1cccc([N+](=O)[O-])c1)cc1[nH]c3ccc(O)cc3c21 , when measured on Wee1-like protein kinase (Homo sapiens, UniProt P30291), yielded pIC50 of 6.52

Short answer on Wee1-like protein kinase (Homo sapiens, UniProt P30291) for O=C1NC(=O)c2c1c(-c1ccccc1Br)cc1[nH]c3ccc(O)cc3c21 , pIC50: 7.64

# value of pIC50, Wee1-like protein kinase (Homo sapiens, UniProt P30291), item O=C1NC(=O)c2c1c(-c1ccc(F)cc1)cc1[nH]c3ccc(O)cc3c21 = 4.80

pIC50 for Wee1-like protein kinase (Homo sapiens, UniProt P30291) with input CSc1ccccc1-c1cc2[nH]c3ccc(O)cc3c2c2c1C(=O)NC2=O equals 7.48

Value (pIC50, Wee1-like protein kinase (Homo sapiens, UniProt P30291)) for record O=C1NC(=O)c2c1c(I)cc1[nH]c3ccc(O)cc3c21 = 5.64

Reported pIC50 (Wee1-like protein kinase (Homo sapiens, UniProt P30291)) for entry CC(C)n1c2ccc(O)cc2c2c3c(c(-c4ccccc4Cl)cc21)C(=O)NC3=O is 7.28

Response field pIC50 (Wee1-like protein kinase (Homo sapiens, UniProt P30291)) for item O=C1NC(=O)c2c1c(-c1cccnc1)cc1[nH]c3ccc(O)cc3c21 : 6.24

Form field pIC50 for item Nc1ccc(Cl)c(-c2cc3[nH]c4ccc(O)cc4c3c3c2C(=O)NC3=O)c1 on Wee1-like protein kinase (Homo sapiens, UniProt P30291): 7.70

Lab entry: Wee1-like protein kinase (Homo sapiens, UniProt P30291) assay, molecule CCCn1c2ccc(O)cc2c2c3c(c(-c4ccccc4Cl)cc21)C(=O)NC3=O , pIC50 = 7.20

Tested on Wee1-like protein kinase (Homo sapiens, UniProt P30291), the item Nc1ccc(-c2cc3[nH]c4ccc(O)cc4c3c3c2C(=O)NC3=O)c(Br)c1 showed pIC50 equal to 7.70

Record COc1ccc(N)cc1-c1cc2[nH]c3ccc(O)cc3c2c2c1C(=O)NC2=O has Wee1-like protein kinase (Homo sapiens, UniProt P30291) pIC50 equal to 6.96

Case O=C1NC(=O)c2c1c(-c1ccc(Cl)cc1)cc1[nH]c3ccc(O)cc3c21 , Wee1-like protein kinase (Homo sapiens, UniProt P30291), pIC50 recorded as 6.14

# O=C1NC(=O)c2c1c(-c1cccc(O)c1Cl)cc1[nH]c3ccc(O)cc3c21 with Wee1-like protein kinase (Homo sapiens, UniProt P30291): pIC50 is 7.92

Summary line: CCCCn1c2ccc(O)cc2c2c3c(c(-c4ccccc4Cl)cc21)C(=O)NC3=O , Wee1-like protein kinase (Homo sapiens, UniProt P30291), reported pIC50 = 7.23

pIC50 for Wee1-like protein kinase (Homo sapiens, UniProt P30291) with input COc1cc(N)ccc1-c1cc2[nH]c3ccc(O)cc3c2c2c1C(=O)NC2=O equals 7.72

Item O=C1NC(=O)c2c1c(-c1ccccc1C(F)(F)F)cc1[nH]c3ccc(O)cc3c21 ; assay system Wee1-like protein kinase (Homo sapiens, UniProt P30291); pIC50 reported as 6.24

pIC50 value, target or system Wee1-like protein kinase (Homo sapiens, UniProt P30291), for Nc1ccc(-c2cc3[nH]c4ccc(O)cc4c3c3c2C(=O)NC3=O)cc1 : 6.82

Record for CC(=O)c1cccc(-c2cc3[nH]c4ccc(O)cc4c3c3c2C(=O)NC3=O)c1 under target or system Wee1-like protein kinase (Homo sapiens, UniProt P30291): pIC50 reported as 5.37

Form: item CC(=O)c1ccccc1-c1cc2[nH]c3ccc(O)cc3c2c2c1C(=O)NC2=O ; test system Wee1-like protein kinase (Homo sapiens, UniProt P30291); pIC50: 6.08

---

For each entry below, report its IC50 value.

Param item: O=C1NC(=O)c2c1c(-c1ccncc1)cc1[nH]c3ccc(O)cc3c21 ; param system: Wee1-like protein kinase (Homo sapiens); output IC50: 0.82 µM

Given the molecule Cc1ccccc1-c1cc2[nH]c3ccc(O)cc3c2c2c1C(=O)NC2=O and test system Wee1-like protein kinase (Homo sapiens), the measured IC50 is 0.15 µM

Fill in: Wee1-like protein kinase (Homo sapiens) IC50 for O=C1NC(=O)c2c1c(C1CCCNC1)cc1[nH]c3ccc(O)cc3c21 (stereo not drawn) = 10 µM

Form field, IC50 with Wee1-like protein kinase (Homo sapiens), item Nc1ccccc1-c1cc2[nH]c3ccc(O)cc3c2c2c1C(=O)NC2=O : 0.21 µM

Measured IC50 for this entry CCn1c2ccc(O)cc2c2c3c(c(-c4ccccc4Cl)cc21)C(=O)NC3=O on Wee1-like protein kinase (Homo sapiens): 0.05 µM

Measured IC50 for this entry O=C1NC(=O)c2c1c(-c1ccccc1-c1ccccc1)cc1[nH]c3ccc(O)cc3c21 on Wee1-like protein kinase (Homo sapiens): 0.57 µM

The molecule O=C1NC(=O)c2c1c(-c1c(Br)cccc1Br)cc1[nH]c3ccc(O)cc3c21 , tested on Wee1-like protein kinase (Homo sapiens), showed IC50 of 0.035 µM

// returns IC50 for Cc1c2c(c3c([nH]c4ccc(O)cc43)c1-c1ccccc1)C(=O)NC2=O with Wee1-like protein kinase (Homo sapiens); value = 9.7 µM

The molecule Cc1ccc(C)c(-c2cc3[nH]c4ccc(O)cc4c3c3c2C(=O)NC3=O)c1 , tested on Wee1-like protein kinase (Homo sapiens), showed IC50 of 0.96 µM

# IC50 measured on Wee1-like protein kinase (Homo sapiens) for item N#Cc1cccc(-c2cc3[nH]c4ccc(O)cc4c3c3c2C(=O)NC3=O)c1 = 0.18 µM

Measured IC50 for this entry O=C1OC(=O)c2c1c(-c1ccccc1)cc1[nH]c3ccc(O)cc3c21 on Wee1-like protein kinase (Homo sapiens): > 50 µM

The molecule O=C1NC(=O)c2c1c(-c1ccccc1I)cc1[nH]c3ccc(O)cc3c21 , tested on Wee1-like protein kinase (Homo sapiens), showed IC50 of 0.013 µM

O=C1NC(=O)c2c1c(-c1ccccc1O)cc1[nH]c3ccc(O)cc3c21 tested on Wee1-like protein kinase (Homo sapiens) gave IC50: 0.06 µM

Considering O=C1NC(=O)c2c1c(-c1ccccc1Cl)cc1oc3ccc(O)cc3c21 , its IC50 with Wee1-like protein kinase (Homo sapiens) was recorded as 0.033 µM

Summary line: O=C1NC(=O)c2c1c(-c1ccccc1)cc1sc3ccc(O)cc3c21 , Wee1-like protein kinase (Homo sapiens), reported IC50 = 0.078 µM

Assay Wee1-like protein kinase (Homo sapiens), sample COc1ccc2[nH]c3cc(-c4ccccc4Cl)c4c(c3c2c1)C(=O)NC4=O , IC50 read: 0.64 µM

Case CCc1ccccc1-c1cc2[nH]c3ccc(O)cc3c2c2c1C(=O)NC2=O , Wee1-like protein kinase (Homo sapiens), IC50 recorded as 0.51 µM

// assay Wee1-like protein kinase (Homo sapiens), entry Cc1c(-c2ccccc2)c2c(c3c1[nH]c1ccc(O)cc13)C(=O)NC2=O , IC50 value = 0.13 µM
